// provenance: patent US9012443B2

target: Nav 1.7 (Homo sapiens (Human), UniProt Q15858); assay: Nav 1.7 IWQ in vitro assay (IonWorks Quattro population patch-clamp); assay type: cell-based; conditions: 293 cells stably transfected with Nav 1.7; second part of table; read-out: Nav1.7 IWQ IC50 IP
Sequence (Q15858 whole entry): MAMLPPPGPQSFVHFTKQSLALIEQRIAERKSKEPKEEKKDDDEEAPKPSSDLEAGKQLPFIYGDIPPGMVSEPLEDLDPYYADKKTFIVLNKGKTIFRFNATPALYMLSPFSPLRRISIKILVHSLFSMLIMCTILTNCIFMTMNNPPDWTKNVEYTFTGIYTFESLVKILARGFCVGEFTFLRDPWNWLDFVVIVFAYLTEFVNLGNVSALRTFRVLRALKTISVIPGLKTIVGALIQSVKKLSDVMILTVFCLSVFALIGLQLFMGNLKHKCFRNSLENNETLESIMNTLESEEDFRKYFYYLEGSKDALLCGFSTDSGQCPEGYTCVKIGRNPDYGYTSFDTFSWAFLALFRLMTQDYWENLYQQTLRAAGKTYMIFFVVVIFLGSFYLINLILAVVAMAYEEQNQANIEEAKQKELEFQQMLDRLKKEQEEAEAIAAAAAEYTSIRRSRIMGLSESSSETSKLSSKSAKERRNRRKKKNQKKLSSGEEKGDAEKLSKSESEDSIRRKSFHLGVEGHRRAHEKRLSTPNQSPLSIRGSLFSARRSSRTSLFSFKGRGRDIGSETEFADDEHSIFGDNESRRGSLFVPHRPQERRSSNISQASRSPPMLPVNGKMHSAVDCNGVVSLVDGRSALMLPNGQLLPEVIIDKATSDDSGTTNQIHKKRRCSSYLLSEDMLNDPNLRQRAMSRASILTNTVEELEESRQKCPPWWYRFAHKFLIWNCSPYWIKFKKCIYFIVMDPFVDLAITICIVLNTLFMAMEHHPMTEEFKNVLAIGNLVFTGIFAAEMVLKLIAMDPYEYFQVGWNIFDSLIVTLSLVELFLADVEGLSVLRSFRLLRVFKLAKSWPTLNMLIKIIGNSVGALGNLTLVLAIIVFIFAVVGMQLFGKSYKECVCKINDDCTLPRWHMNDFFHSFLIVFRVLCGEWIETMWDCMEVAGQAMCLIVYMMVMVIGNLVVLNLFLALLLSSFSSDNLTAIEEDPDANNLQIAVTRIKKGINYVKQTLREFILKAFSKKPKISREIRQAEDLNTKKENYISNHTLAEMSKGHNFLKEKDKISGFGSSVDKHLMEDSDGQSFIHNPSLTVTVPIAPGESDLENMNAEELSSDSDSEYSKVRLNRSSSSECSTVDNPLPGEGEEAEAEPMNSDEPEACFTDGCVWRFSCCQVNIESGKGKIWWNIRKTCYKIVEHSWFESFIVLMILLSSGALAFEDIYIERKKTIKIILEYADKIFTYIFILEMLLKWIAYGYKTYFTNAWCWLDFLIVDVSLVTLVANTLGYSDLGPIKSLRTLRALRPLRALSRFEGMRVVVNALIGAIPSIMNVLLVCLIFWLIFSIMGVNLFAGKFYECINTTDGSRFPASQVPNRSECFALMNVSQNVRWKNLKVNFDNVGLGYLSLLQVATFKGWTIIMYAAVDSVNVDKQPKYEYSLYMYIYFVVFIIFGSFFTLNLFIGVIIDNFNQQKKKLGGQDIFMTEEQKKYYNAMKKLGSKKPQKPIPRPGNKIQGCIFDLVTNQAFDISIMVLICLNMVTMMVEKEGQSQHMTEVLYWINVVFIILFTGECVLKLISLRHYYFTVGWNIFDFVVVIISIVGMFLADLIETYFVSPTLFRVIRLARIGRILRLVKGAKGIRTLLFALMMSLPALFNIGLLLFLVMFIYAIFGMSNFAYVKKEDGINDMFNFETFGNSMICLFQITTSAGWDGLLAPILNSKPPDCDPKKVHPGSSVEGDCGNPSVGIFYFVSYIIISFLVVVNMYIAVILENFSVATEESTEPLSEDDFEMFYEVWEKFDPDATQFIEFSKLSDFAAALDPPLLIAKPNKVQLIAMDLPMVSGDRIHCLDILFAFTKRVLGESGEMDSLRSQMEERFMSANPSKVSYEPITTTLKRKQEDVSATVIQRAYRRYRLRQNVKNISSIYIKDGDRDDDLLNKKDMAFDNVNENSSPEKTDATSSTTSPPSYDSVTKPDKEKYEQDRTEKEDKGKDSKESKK
pIC50: −log10 of the molar value.
quantity: pIC50

(I) O=S(=O)(Nc1ccncn1)c1ccc2c(-c3cccc4ccsc34)nccc2c1
(II) COc1cc(C(F)(F)F)ccc1-c1cncc2cc(S(=O)(=O)Nc3nccs3)ccc12
(III) COCCN1CCCC1c1nccc2cc(S(=O)(=O)Nc3nccs3)ccc12 (stereo not drawn)
(IV) CN(Cc1ccccc1)c1cccc2cc(S(=O)(=O)Nc3ncns3)ccc12
*Q* Sort ascending by pIC50. Please, when replying, give the labels in the order that was requested.
*A* I, III, IV, II

====

target: Nav 1.7 (Homo sapiens (Human), UniProt Q15858); assay: Nav 1.7 IWQ in vitro assay (IonWorks Quattro population patch-clamp); type: cell-based; conditions: at […]
quantity: Nav1.7 Single Point Data IWQ (at […]) (%)

{"compound": "COc1cc(C(F)(F)F)ccc1-c1nccc2cc(S(=O)(=O)NC(C)=O)ccc12", "assay-target": "Nav 1.7 (Homo sapiens (Human), UniProt Q15858)", "unit-tag": "%", "recorded-number": 39}
{"compound": "O=S(=O)(Nc1ccncn1)c1ccc2c(C3CCCN3C3CCOCC3)nccc2c1 (stereo not drawn) [Example 316, 2,2,2-TRIFLUOROACETATE]", "assay-target": "Nav 1.7 (Homo sapiens (Human), UniProt Q15858)", "unit-tag": "%", "recorded-number": 26}
{"compound": "O=S(=O)(Nc1ccncn1)c1ccc2c(OCCn3cccc3)nccc2c1", "assay-target": "Nav 1.7 (Homo sapiens (Human), UniProt Q15858)", "unit-tag": "%", "recorded-number": 40}
{"compound": "Cn1ccnc1-c1nccc2cc(S(=O)(=O)Nc3nccs3)ccc12 [Example 315, 2,2,2-TRIFLUOROACETATE]", "assay-target": "Nav 1.7 (Homo sapiens (Human), UniProt Q15858)", "unit-tag": "%", "recorded-number": 37}
{"compound": "COc1cc(C(F)(F)F)ccc1-c1nccc2cc(S(=O)(=O)Nc3cc(C(F)(F)F)ncn3)ccc12", "assay-target": "Nav 1.7 (Homo sapiens (Human), UniProt Q15858)", "unit-tag": "%", "recorded-number": 24.7}
{"compound": "Cn1ncnc1COc1nccc2cc(S(=O)(=O)Nc3ccncn3)ccc12", "assay-target": "Nav 1.7 (Homo sapiens (Human), UniProt Q15858)", "unit-tag": "%", "recorded-number": 36}
{"compound": "O=S(=O)(Nc1ccncn1)c1ccc2c(-c3ccc(N4CCCCC4)c(F)c3F)nccc2c1", "assay-target": "Nav 1.7 (Homo sapiens (Human), UniProt Q15858)", "unit-tag": "%", "recorded-number": 34.6}
{"compound": "O=S(=O)(Nc1nccs1)c1ccc2c(N3CCN(c4ccc(Cl)c(Cl)c4)CC3)nccc2c1", "assay-target": "Nav 1.7 (Homo sapiens (Human), UniProt Q15858)", "unit-tag": "%", "recorded-number": 35}

====

target: UniProt:Q15858; experiment: Nav 1.7 in vitro PX assay (PatchXpress whole cell voltage clamp); format: cell-based; conditions: 293 cells, human Nav1.7, partially inactivated state; read-out: Nav1.7 PX IC50 IP
pIC50: −log10 of the molar value.
quantity: pIC50

A selection of reference data follows.
{"compound-structure": "COc1cc(C(F)(F)F)ccc1-c1n[nH]c(=O)c2cc(S(=O)(=O)Nc3nccs3)ccc12", "assay-target": "UniProt:Q15858", "recorded-number": 6.82}
{"compound-structure": "COc1ccc(-c2ccc(-c3nccc4cc(S(=O)(=O)Nc5ccncn5)ccc34)c(OC)c2)cn1", "assay-target": "UniProt:Q15858", "recorded-number": 5.85}

(P) COc1cc(C(F)(F)F)ccc1-c1ncc(F)c2cc(S(=O)(=O)Nc3ncns3)ccc12
(Q) COc1cc(C(F)(F)F)ccc1-c1nccc2cc(S(=O)(=O)Nc3cc(Cl)ncn3)ccc12
*Q* // pick larger pIC50 from pair: P vs Q Please indicate the selected item by its label.
*A* P
